# reported melting point; entries follow

Examples from the recorded data:
{"smiles-input": "O=S(=O)(Nc1cccc(CCOCc2nc(-c3ccc(C(F)(F)F)cc3)sc2Cl)c1)C(F)(F)F", "melting point": "107 to 109 °C"}
{"smiles-input": "NC(=O)Nc1ccc(CCOCc2ccccc2-c2ccccc2)cc1", "melting point": "143 to 144 °C"}
{"smiles-input": "COc1cccc(-c2ccc(COCCc3cccc(NS(=O)(=O)C(F)(F)F)c3)c(F)c2)c1", "melting point": "80 to 82 °C"}
{"smiles-input": "O=S(=O)(Nc1cccc(CCOCc2ccc(-c3ccc(C(F)(F)F)cc3)cc2F)c1)C(F)(F)F", "melting point": "121 to 122 °C"}
{"smiles-input": "COc1ccc(-c2ccc(Cl)cc2)cc1COCCc1cccc(NS(=O)(=O)C(F)(F)F)c1", "melting point": "99 to 101 °C"}
{"smiles-input": "O=S(=O)(Nc1cccc(CCOCc2cccc(-c3ccccc3)n2)c1)C(F)(F)F", "melting point": "75 to 77 °C"}
{"smiles-input": "O=S(=O)(Nc1cccc(CCOCc2cccc(-c3cc(Cl)cc(Cl)c3)c2)c1)C(F)(F)F", "melting point": "52 to 54 °C"}

Attention now shifts to the item below.
Form field melting point, entry O=S(=O)(NCCc1cccc(OCc2noc(-c3ccc(C(F)(F)F)cc3)n2)c1)C(F)(F)F : 83 to 86 °C

====

parameter-measured: melting point

Examples from the recorded data:
{"smiles-input": "Cc1cccc(-c2ccc(COCCc3cccc(NS(=O)(=O)C(F)(F)F)c3)c(F)c2)c1", "melting point": "60 to 61 °C"}
{"smiles-input": "O=S(=O)(Nc1cccc(CCOCc2ccc(-c3cc(Cl)cc(Cl)c3)cc2)c1)C(F)(F)F", "melting point": "70 to 72 °C"}
{"smiles-input": "O=S(=O)(Nc1cccc(CCOCc2cccc(-c3ccc(F)cc3)c2)c1)C(F)(F)F", "melting point": "48 to 50 °C"}

Form field melting point, entry O=S(=O)(Nc1cccc(CCOCc2ccc(I)cc2)c1)C(F)(F)F : 48 to 50 °C

Form field melting point, entry Cc1c(COCc2cccc(-c3nn[nH]n3)c2)cccc1-c1ccccc1 : 112 to 114 °C

Form field melting point, entry O=S(=O)(Nc1cccc(CCOCc2csc(-c3ccc(C(F)(F)F)cn3)n2)c1)C(F)(F)F : 116 to 117 °C

Form field melting point, entry O=S(=O)(Nc1cccc(CCOCc2csc(-c3ccccc3)n2)c1)C(F)(F)F : 112 to 113 °C

Form field melting point, entry CC(C)(C)c1ccc(COCCc2cccc(NS(=O)(=O)C(F)(F)F)c2)cc1 : 40 to 42 °C

====

# reported melting point; entries follow

Examples from the recorded data:
{"compound": "COc1ccc(-c2ccc(F)cc2)cc1COCCc1cccc(NS(=O)(=O)C(F)(F)F)c1 [Example 30]", "melting point": "55 to 57 °C"}
{"compound": "O=S(=O)(Nc1cccc(CCOCc2ccc(-c3ccc(OC(F)(F)F)cc3)cc2F)c1)C(F)(F)F [Example 18]", "melting point": "114 to 115 °C"}

Attention now shifts to the item below.
Form field melting point, entry O=S(=O)(Nc1cccc(CCOCc2noc(-c3cccc(C(F)(F)F)c3)n2)c1)C(F)(F)F [Example 83] : 62 to 64 °C

====

parameter-measured: melting point

Form field melting point, entry COc1ccc(-c2cccc(COCCc3cccc(NC(N)=O)c3)c2)cc1 [Example 39] : 87 to 89 °C

Form field melting point, entry COc1ccc(-c2ccc(Cl)cc2)cc1COCCc1cccc(NC(N)=O)c1 [Example 41] : 155 °C (dec.)

Form field melting point, entry O=S(=O)(Nc1cccc(CCOCc2ccc(Br)cc2F)c1)C(F)(F)F [Example 72] : 48 to 50 °C

Form field melting point, entry O=S(=O)(Nc1cccc(CCOCc2ccc(-c3ccc(Cl)c(Cl)c3)cc2)c1)C(F)(F)F [Example 6] : 74 to 75 °C

Form field melting point, entry O=S(=O)(Nc1cccc(CCOCc2csc(-c3ccc(OC(F)(F)F)cc3)n2)c1)C(F)(F)F [Example 61] : 115 to 116 °C

====

- System: Hepatocytes Isolated and Cultured from Obese Zucker (fa/fa) Rats
- assay-details: Inhibition of glucose output from hepatocytes isolated and cultured from obese Zucker (fa/fa) rats
- Assay type: cell-based, rat
- assay-context: Rattus norvegicus, Hepatocyte; inhibition of glucose output vs glucagon stimulated cultured hepatocytes
pIC50: −log10 of the molar value.
Everything with pIC50 lower than 5 is criterion not met; everything else, including exactly 5, is criterion met.

The examples below pair each entry with its known result.
{"smiles-input": "O=S(=O)(Nc1cccc(CCOCc2ccc(-c3ccc(Cl)cc3)cc2)c1)C(F)(F)F", "class-label": "criterion met"}
{"smiles-input": "O=S(=O)(Nc1cccc(CCOCc2csc(-c3ccc(F)c(Cl)c3)n2)c1)C(F)(F)F", "class-label": "criterion not met"}

q: Does O=S(=O)(Nc1cccc(CCOCc2ccc(-c3ccc(Cl)c(Cl)c3)cc2)c1)C(F)(F)F have a reported pIC50 of at least 5?
a: criterion met

q: Does CC(C)(C)c1ccc(-c2nc(COCCc3cccc(NS(=O)(=O)C(F)(F)F)c3)cs2)cc1 have a reported pIC50 of at least 5?
a: criterion met

q: Does COc1cc(COCCc2cccc(NS(=O)(=O)C(F)(F)F)c2)ccc1-c1ccc(Cl)cc1 have a reported pIC50 of at least 5?
a: criterion met

====

# reported melting point; entries follow

{"molecule": "O=S(=O)(Nc1cccc(CCOCc2ccc(-c3ccc(F)cc3)cc2F)c1)C(F)(F)F [Example 10]", "readout-value": "65 to 67 °C"}

Form field melting point, entry O=S(=O)(Nc1cccc(CCOCc2cc(-c3ccc(F)cc3)ccc2Cl)c1)C(F)(F)F [Example 29] : 80 to 82 °C

Form field melting point, entry O=S(=O)(Nc1cccc(CCOCc2noc(-c3ccc(C(F)(F)F)cc3)n2)c1)C(F)(F)F [Example 87] : 83 to 86 °C

Form field melting point, entry O=S(=O)(Nc1cccc(CCOCc2ccc(-c3cccc(C(F)(F)F)c3)cc2F)c1)C(F)(F)F [Example 17] : 60 to 61 °C

====

parameter-measured: melting point

{"smiles-input": "O=S(=O)(Nc1cccc(CCOCc2csc(-c3ccc(C(F)(F)F)cc3)n2)c1)C(F)(F)F", "readout-value": "117 to 119 °C"}
{"smiles-input": "O=S(=O)(Nc1cccc(CCOCc2nc(-c3ccc(F)cc3)sc2Br)c1)C(F)(F)F", "readout-value": "84 to 85 °C"}
{"smiles-input": "CC(C)(C)c1ccc(-c2nc(COCCc3cccc(NS(=O)(=O)C(F)(F)F)c3)cs2)cc1", "readout-value": "110 to 112 °C"}

Form field melting point, entry COc1ccc(-c2nc(COCCc3cccc(NS(=O)(=O)C(F)(F)F)c3)cs2)cc1 : 112 to 113 °C

Form field melting point, entry O=S(=O)(Nc1cccc(CCOCc2ccc(-c3cccc(Cl)c3)cc2)c1)C(F)(F)F : 105 to 107 °C

Form field melting point, entry CC(C)(C)c1ccc(-c2ccc(COCCc3cccc(NS(=O)(=O)C(F)(F)F)c3)c(F)c2)cc1 : 89 to 90 °C

Form field melting point, entry COc1ccc(-c2nc(COCCc3cccc(NS(=O)(=O)C(F)(F)F)c3)no2)cc1 : 88 to 90 °C

Form field melting point, entry O=S(=O)(Nc1cccc(CCOCc2ccc(-c3ccc(F)cc3)cc2)c1)C(F)(F)F : 65 to 67 °C

====

parameter-measured: melting point

Examples from the recorded data:
{"smiles-input": "O=S(=O)(Nc1ccc(CCOCc2ccccc2-c2ccccc2)cc1)C(F)(F)F", "melting point": "79 to 81 °C"}
{"smiles-input": "O=S(=O)(Nc1cccc(CCOCc2ccc(-c3ccc(Cl)cc3)cc2)c1)C(F)(F)F", "melting point": "69 to 70 °C"}
{"smiles-input": "O=S(=O)(Nc1cccc(CCOCc2sc3ccccc3c2Cl)c1)C(F)(F)F", "melting point": "85 to 87 °C"}
{"smiles-input": "COc1ccc(-c2ccc(COCCc3cccc(NS(=O)(=O)C(F)(F)F)c3)cc2)cc1", "melting point": "96 to 98 °C"}
{"smiles-input": "O=S(=O)(Nc1cccc(CCOCc2ccc(Oc3ccccc3)cc2)c1)C(F)(F)F", "melting point": "47 to 49 °C"}
{"smiles-input": "O=S(=O)(Nc1cccc(CCOCc2cccc(-c3ccc(F)cc3)n2)c1)C(F)(F)F", "melting point": "71 to 73 °C"}

Form field melting point, entry O=S(=O)(Nc1cccc(CCOCc2ccc(-c3ccc(C(F)(F)F)cc3)cc2)c1)C(F)(F)F : 98 to 100 °C

Form field melting point, entry O=S(=O)(Nc1cccc(CCOCc2csc(-c3ccccc3Cl)n2)c1)C(F)(F)F : 86 to 87 °C

Form field melting point, entry O=S(=O)(Nc1cccc(CCOCc2ccc(-c3ccc(Cl)cc3Cl)cc2F)c1)C(F)(F)F : 65 to 66 °C
